Biological target: AKT (Homo sapiens, UniProt P31749)
Sequence (P31749 whole entry): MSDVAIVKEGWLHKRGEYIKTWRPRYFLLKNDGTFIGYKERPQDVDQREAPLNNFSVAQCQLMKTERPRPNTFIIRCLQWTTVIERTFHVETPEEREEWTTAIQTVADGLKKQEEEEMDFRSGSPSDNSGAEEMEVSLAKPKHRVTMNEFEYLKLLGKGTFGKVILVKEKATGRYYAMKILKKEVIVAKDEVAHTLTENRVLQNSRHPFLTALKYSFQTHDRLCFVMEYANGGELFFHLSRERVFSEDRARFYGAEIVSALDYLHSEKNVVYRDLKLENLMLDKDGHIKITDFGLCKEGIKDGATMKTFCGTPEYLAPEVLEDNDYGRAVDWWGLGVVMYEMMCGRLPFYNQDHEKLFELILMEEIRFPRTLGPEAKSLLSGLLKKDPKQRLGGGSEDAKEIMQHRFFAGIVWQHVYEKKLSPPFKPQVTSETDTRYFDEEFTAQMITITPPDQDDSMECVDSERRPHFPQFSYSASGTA
Experiment: RBC HotSpot kinase assay (33P-ATP, P81 filter-binding), AKT
Type: biochemical
Settings: Table 28, biochemical kinase assay; read-out: AKT IC50
pIC50: −log10 of the molar value.
Experimental readout: pIC50

# annotated cases, reported pIC50 shown
| Structure smiles string | Experimental readout | Measured value |
| --- | --- | --- |
| NCc1ccc(-c2cc(Cl)nc3[nH]ccc23)cc1 | pIC50 | < 5.00 |
| NCc1ccc(-c2cc(N)nc3[nH]ccc23)cc1 | pIC50 | < 5.00 |

Okay, next one:
Recorded pIC50 (molecule O=C(C1CC1)N1CCC(c2ccc(-c3ccnc4[nH]cc(F)c34)cc2Cl)CC1 ): < 5.00

###

Target: AKT (Homo sapiens, UniProt P31749)
Experiment: RBC HotSpot kinase assay (33P-ATP, P81 filter-binding), AKT
Assay type: biochemical
Conditions: Table 28, biochemical kinase assay; read-out: AKT IC50
pIC50: −log10 of the molar value.
Experimental readout: pIC50

| Compound | pIC50 |
| --- | --- |
| Fc1c[nH]c2nccc(-c3ccc(C4CCNCC4)c(Cl)c3)c12 | 6.15 |
| CN1CC2CC(C1)C2(O)c1ccc(-c2ccnc3[nH]cc(F)c23)cc1Cl (stereo not drawn) | 6.10 |
| Cc1cc(-c2ccnc3[nH]cc(F)c23)cc(F)c1[C@@]1(O)[C@H](C)CN(C(=O)[C@@H]2C[C@@H](O)CN2)C[C@@H]1C | 6.17 |

###

Molecular target: LATS1 Kinase-NanoLuc fusion in HEK-293 cells (Homo sapiens, UniProt O95835)
Construct: host or cells: HEK-293
Experiment: NanoBRET target engagement assay in transfected HEK-293 cells, LATS1
Assay type: cell-based
Conditions: cellular
Below, each entry is listed with its recorded IC50.

| Compound | IC50 |
| --- | --- |
| CNCC(=O)N1C[C@@H](C)[C@](O)(c2c(C)cc(-c3ccnc4[nH]cc(C#N)c34)cc2F)[C@@H](C)C1 | < 2.5 nM |
| Cc1cc(-c2ccnc3[nH]cc(C#N)c23)cc(F)c1[C@@]1(O)[C@H](C)CN(C(=O)[C@H](N)CO)C[C@@H]1C | < 2.5 nM |
| Cc1cc(-c2ccnc3[nH]cc(C#N)c23)cc(F)c1[C@@]1(O)[C@H](C)CN(C(=O)[C@H](C)N)C[C@@H]1C | < 2.5 nM |

Param item: Cc1cc(-c2ccnc3[nH]cc(C#N)c23)cc(F)c1[C@@]1(O)[C@H](C)CN(C(=O)[C@](C)(N)CO)C[C@@H]1C ; param system: LATS1 Kinase-NanoLuc fusion in HEK-293 cells (Homo sapiens, UniProt O95835); output IC50: < 2.5 nM

Param item: Cc1cc(-c2ccnc3[nH]cc(C#N)c23)cc(F)c1[C@@]1(O)[C@H](C)CN(C(=O)[C@H](CO)N(C)C)C[C@@H]1C ; param system: LATS1 Kinase-NanoLuc fusion in HEK-293 cells (Homo sapiens, UniProt O95835); output IC50: < 2.5 nM

Param item: Cc1cc(-c2ccnc3[nH]cc(C#N)c23)cc(F)c1[C@@]1(O)[C@H](C)CN(C(=O)C(N)C(F)(F)F)C[C@@H]1C (stereo partly shown) ; param system: LATS1 Kinase-NanoLuc fusion in HEK-293 cells (Homo sapiens, UniProt O95835); output IC50: < 2.5 nM

Param item: Cc1cc(-c2ccnc3[nH]cc(C#N)c23)cc(F)c1[C@@]1(O)[C@H](C)CN(C(=O)[C@@H](C)N)C[C@@H]1C ; param system: LATS1 Kinase-NanoLuc fusion in HEK-293 cells (Homo sapiens, UniProt O95835); output IC50: < 2.5 nM

###

Target: AKT (Homo sapiens)
Experiment: RBC HotSpot kinase assay (33P-ATP, P81 filter-binding), AKT
Type: biochemical
Details: biochemical kinase inhibition; read-out: AKT IC50
Experimental readout: IC50 (µM)

(1) Cc1cc(-c2ccnc3[nH]cc(C#N)c23)cc(F)c1[C@@]1(O)[C@H](C)CN(C(=O)[C@H](N)CO)C[C@@H]1C [Compound 2007]
(2) Cc1cc(-c2ccnc3[nH]cc(C#N)c23)cc(F)c1[C@@]1(O)[C@H](C)CN(C(=O)[C@@H]2CCCN2)C[C@@H]1C
I'm curious whether 1 or 2 has the smaller IC50 number. Which is it? Refer to your chosen item by its label in the answer.
1

###

Molecular target: LATS1 (Homo sapiens)
Assay: RBC HotSpot kinase assay (33P-ATP, P81 filter-binding), LATS1
Assay type: biochemical
Details: Table 28, biochemical kinase assay; read-out: LATS1 IC50
Experimental readout: IC50 (nM)

| Compound | IC50, nM |
| --- | --- |
| CC(C)N1C[C@@H](C)[C@](O)(c2ccc(-c3ccnc4[nH]cc(F)c34)cc2Cl)[C@@H](C)C1 | 1.3 |
| NCc1ccc(-c2ccnc3[nH]ccc23)cc1 | 23 |

(1) CC1CNCCC1(O)c1ccc(-c2ccnc3[nH]cc(F)c23)cc1Cl (stereo not shown)
(2) C[C@@H]1CN(C)C[C@H](C)[C@@]1(O)c1ccc(-c2ccnc3[nH]ccc23)nc1
(3) CN1CCC(O)(c2ccc(-c3ccnc4[nH]cc(Br)c34)cc2)CC1
Give the ascending ranking of the items by reported IC50. Answer format: list of labels, ordered as asked.
3, 1, 2

(I) CN(C)C(C)(C)c1ccc(-c2ccnc3[nH]cc(F)c23)cc1
(II) C[C@@H]1CN(C2CCNCC2)C[C@H](C)[C@@]1(O)c1c(F)cc(-c2ccnc3[nH]cc(F)c23)cc1F
(III) OC1(c2ccc(-c3ccnc4[nH]ccc34)cc2)CCNCC1
List items by IC50 in falling order. Answer format: list of labels, ordered as asked.
III, I, II

###

Target: LATS1 (Homo sapiens)
Test: RBC HotSpot kinase assay (33P-ATP, P81 filter-binding), LATS1
Format: biochemical
Details: Table 28, biochemical kinase assay; read-out: LATS1 IC50
Experimental readout: IC50 (nM)

| Molecule | IC50 / nM |
| --- | --- |
| Cc1nc(-c2ccnc3[nH]cc(F)c23)ccc1C1(O)[C@H](C)CN(C(=O)CN)C[C@@H]1C (some centres unmarked) | 29.8 |
| Cc1cc(-c2ccnc3[nH]cc(F)c23)cc(F)c1C1(O)[C@H](C)CN(C2CCOCC2)C[C@@H]1C (some centres unmarked) | 3.4 |
| CC1CN(C)CC(C)C1(O)c1ccc(-c2ccnc3[nH]cc(Br)c23)cc1Cl (centres unmarked) | 14.1 |
| COc1cc(-c2ccnc3[nH]ccc23)ccc1CN | 24 |
| NCc1ccc(-c2ccnc3[nH]cc(Cl)c23)cc1-c1ccccc1 | 6.5 |

(a) NCc1ccc(-c2ccnc3[nH]cc(F)c23)cc1
(b) Cc1cc(-c2ccnc3[nH]cc(F)c23)cc(F)c1[C@@]1(O)[C@H](C)CN(C(=O)[C@@H]2C[C@H](O)CN2)C[C@@H]1C
(c) Cc1cc(-c2ccnc3[nH]cc(F)c23)ncc1[C@@]1(O)[C@H](C)CN(C2CCS(=O)(=O)CC2)C[C@@H]1C
(d) NCc1ccc(-c2c(F)cnc3[nH]ccc23)cc1
(e) Cc1cc(-c2ccnc3[nH]cc(Cl)c23)ccc1CN
List items by IC50 in falling order. Answer format: list of labels, ordered as asked.
c, d, a, b, e

###

Molecular target: LATS2 (Homo sapiens, UniProt Q9NRM7)
Sequence (Q9NRM7 whole entry): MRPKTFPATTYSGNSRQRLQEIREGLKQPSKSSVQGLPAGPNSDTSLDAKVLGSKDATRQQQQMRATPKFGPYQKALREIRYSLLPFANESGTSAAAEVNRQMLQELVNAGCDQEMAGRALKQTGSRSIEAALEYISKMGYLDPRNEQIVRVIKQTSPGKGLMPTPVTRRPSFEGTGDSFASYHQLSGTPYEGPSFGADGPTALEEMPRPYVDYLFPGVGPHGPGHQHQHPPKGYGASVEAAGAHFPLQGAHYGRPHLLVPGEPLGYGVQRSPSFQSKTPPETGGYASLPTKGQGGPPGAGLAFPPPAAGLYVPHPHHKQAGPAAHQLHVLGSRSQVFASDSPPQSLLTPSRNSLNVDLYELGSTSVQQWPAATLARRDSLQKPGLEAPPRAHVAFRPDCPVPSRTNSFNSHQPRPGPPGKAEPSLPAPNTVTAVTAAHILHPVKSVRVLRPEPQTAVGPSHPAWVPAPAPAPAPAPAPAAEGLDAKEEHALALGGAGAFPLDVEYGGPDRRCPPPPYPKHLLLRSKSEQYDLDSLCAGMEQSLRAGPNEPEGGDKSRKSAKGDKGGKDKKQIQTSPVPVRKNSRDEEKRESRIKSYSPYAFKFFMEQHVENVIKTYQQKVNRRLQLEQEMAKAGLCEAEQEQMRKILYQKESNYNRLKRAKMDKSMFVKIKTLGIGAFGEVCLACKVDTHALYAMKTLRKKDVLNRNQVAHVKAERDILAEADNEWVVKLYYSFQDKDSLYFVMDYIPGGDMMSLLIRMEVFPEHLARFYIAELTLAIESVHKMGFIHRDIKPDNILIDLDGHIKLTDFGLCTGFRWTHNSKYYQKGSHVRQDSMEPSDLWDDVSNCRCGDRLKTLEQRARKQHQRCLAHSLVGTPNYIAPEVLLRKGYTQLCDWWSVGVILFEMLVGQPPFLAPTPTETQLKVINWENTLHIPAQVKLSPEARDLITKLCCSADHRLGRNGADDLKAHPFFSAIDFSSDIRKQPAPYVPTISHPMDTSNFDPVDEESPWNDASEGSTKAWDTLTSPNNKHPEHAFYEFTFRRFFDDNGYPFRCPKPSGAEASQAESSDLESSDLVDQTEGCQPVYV
Assay: RBC HotSpot kinase assay (33P-ATP, P81 filter-binding), LATS2
Assay type: biochemical
Details: Table 28, biochemical kinase assay; read-out: LATS2 IC50
Experimental readout: IC50 (nM)

| Compound | Units | Measured value |
| --- | --- | --- |
| OC1(c2ccc(-c3ccnc4[nH]cc(Br)c34)cc2Cl)C2CNCC1C2 (stereo not drawn) | nM | 14.6 |
| NCc1ccc(-c2cc(-c3ccnc4[nH]ccc34)ccc2C2CCNCC2)cc1 | nM | 1 |
| CC1CN(C)CC(C)C1(O)c1ccc(-c2ccnc3[nH]cc(Br)c23)cc1Cl (stereo not drawn) | nM | 7 |

(a) Cc1cc(-c2ccnc3[nH]ccc23)ccc1CN
(b) NCc1ccc(-c2ccnc3[nH]ccc23)cc1Cl
(c) Cc1nc(-c2ccnc3[nH]cc(F)c23)ccc1C1(O)CCNCC1
Give the ascending ranking of the items by reported IC50. Answer format: list of labels, ordered as asked.
a, b, c
(a: 5 nM, b: 20 nM, c: 326 nM)

###

Target: LATS1 (Homo sapiens, UniProt O95835)
Sequence (O95835 whole entry): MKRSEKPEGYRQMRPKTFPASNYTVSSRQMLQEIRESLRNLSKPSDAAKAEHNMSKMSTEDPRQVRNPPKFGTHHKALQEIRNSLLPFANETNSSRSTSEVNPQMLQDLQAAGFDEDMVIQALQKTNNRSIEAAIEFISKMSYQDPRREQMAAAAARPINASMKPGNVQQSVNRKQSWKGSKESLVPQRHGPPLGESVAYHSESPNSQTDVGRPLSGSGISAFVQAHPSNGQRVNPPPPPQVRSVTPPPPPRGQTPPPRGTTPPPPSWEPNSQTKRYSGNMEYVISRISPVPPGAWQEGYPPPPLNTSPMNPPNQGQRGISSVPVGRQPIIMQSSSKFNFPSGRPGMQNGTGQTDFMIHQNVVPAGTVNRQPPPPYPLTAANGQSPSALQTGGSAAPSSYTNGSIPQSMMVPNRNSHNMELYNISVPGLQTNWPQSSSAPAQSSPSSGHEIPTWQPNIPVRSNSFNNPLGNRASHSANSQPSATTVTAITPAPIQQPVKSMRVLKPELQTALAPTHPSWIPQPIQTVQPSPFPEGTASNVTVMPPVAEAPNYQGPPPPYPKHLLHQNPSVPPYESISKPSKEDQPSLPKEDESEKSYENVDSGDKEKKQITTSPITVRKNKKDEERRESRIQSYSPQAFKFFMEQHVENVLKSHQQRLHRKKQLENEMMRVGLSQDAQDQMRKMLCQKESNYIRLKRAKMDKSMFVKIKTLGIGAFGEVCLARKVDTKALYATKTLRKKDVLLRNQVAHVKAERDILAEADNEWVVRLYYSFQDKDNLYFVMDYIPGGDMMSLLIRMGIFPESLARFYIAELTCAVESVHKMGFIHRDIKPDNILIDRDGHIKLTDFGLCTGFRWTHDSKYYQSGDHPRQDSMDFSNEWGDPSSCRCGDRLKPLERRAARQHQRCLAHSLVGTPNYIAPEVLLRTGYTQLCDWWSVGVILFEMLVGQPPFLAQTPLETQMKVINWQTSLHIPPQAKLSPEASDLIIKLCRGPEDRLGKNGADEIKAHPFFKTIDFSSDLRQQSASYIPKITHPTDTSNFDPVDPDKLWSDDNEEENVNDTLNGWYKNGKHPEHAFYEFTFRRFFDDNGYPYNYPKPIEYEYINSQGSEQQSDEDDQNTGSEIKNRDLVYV
Assay: RBC HotSpot kinase assay (33P-ATP, P81 filter-binding), LATS1
Assay type: biochemical
Conditions: Table 28, biochemical kinase assay; read-out: LATS1 IC50
Experimental readout: IC50 (nM)

(a) COC(=O)c1c[nH]c2nccc(-c3ccc(C4(O)CCNCC4)cc3)c12
(b) C[C@@H]1CN(C(=O)[C@H]2CCCN2)C[C@H](C)C1(O)c1c(F)cc(-c2ccnc3[nH]cc(F)c23)cc1F (some centres unmarked)
(c) Cc1c[nH]c2nccc(-c3ccc([C@@]4(O)[C@H](C)CNC[C@@H]4C)cn3)c12
(d) C[C@@H]1CN(C(=O)[C@@H]2CCCN2)C[C@H](C)C1(O)c1c(F)cc(-c2ccnc3[nH]cc(F)c23)cc1F (some centres unmarked)
Rank the listed compounds by IC50, largest first. Answer format: list of labels, ordered as asked.
c, d, a, b
(c: 72.3 nM, d: 21.6 nM, a: 9.2 nM, b: 5.8 nM)
